- Target Of Assay: eEF2K (Homo sapiens)
- Construct: in the immortalized epithelial breast cell lines, MCF10A; host or cells: MCF10A immortalized breast epithelial cells
- Sequence (O00418 1-725): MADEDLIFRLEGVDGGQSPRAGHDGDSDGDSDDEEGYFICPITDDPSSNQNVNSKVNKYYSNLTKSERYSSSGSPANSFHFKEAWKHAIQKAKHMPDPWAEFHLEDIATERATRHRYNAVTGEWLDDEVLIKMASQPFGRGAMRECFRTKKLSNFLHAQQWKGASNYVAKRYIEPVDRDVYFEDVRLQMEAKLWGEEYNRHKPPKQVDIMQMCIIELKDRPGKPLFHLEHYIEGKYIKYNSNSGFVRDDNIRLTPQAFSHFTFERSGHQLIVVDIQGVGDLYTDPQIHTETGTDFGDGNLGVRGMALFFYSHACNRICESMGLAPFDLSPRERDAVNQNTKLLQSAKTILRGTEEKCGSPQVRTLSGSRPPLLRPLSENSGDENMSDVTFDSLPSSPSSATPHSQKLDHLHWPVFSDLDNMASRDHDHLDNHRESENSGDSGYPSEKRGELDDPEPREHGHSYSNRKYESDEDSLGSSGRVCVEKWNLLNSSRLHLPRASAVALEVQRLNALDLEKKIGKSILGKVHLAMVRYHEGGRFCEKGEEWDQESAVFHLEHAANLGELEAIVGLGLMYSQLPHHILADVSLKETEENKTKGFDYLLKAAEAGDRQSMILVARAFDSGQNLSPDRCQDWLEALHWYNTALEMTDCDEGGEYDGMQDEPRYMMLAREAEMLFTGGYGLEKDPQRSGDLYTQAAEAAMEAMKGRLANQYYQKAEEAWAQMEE
- Procedure Summary: EF2K cell-based assay (P-EF2 AlphaLISA, 2-deoxyglucose stimulated MCF10A cells)
- Test Context: 2.5 mM 2-deoxyglucose 4 h, phosphorylation of EF2 at Thr 56, pIC50 = -log IC50 (M), read-out: eEF2K_C_PThr56 pIC50 (converted)
Endpoint Name: IC50 (M)

Guide cases for IC50, answers given:
IC50 for CC1CN2Cc3cccc(c3)Nc3cc(ccn3)-c3cnc(nc3)NCCCNC(=O)CN1CC2C (stereo not shown) ?
2.45e-07

Using the record for `O=C1CN2CCN(CC2)Cc2cccc(c2F)Nc2cc(ccn2)-c2cnc(nc2)NCCCN1` , report its IC50.
3.63e-07

Find the recorded IC50 belonging to O=C1NCCC2CC(O)CN2c2ncc(cn2)-c2ccnc(c2)Nc2cccc(c2)CN2CCN(CC2)C12CC2 (stereo not shown) [Compound 56] and report it.
3.02e-07

Entry `O=C1CN2CC3CCC(C2)N3Cc2cccc(c2)Nc2cc(ccn2)-c2cnc(nc2)NCCCN1` : reported IC50 = ?
1.7e-06

(a) [N-]=[N+]=N[C@H]1C[C@H]2CCNC(=O)C3(CC3)N3CCN(CC3)Cc3cccc(c3)Nc3cc(ccn3)-c3cnc(nc3)N2C1
(b) O=C1NCCC2CC(O)CN2c2ncc(cn2)-c2ccnc(c2)Nc2cccc(c2)CN2CCN(CC2)C12COC2 (stereo not shown) [Compound 63]
Compare reported IC50 values for a and b . Which is lower? # reply format: chosen label
a
